Biological target: CDK4 (Homo sapiens, UniProt P11802+Q16531)
Sequence (P11802 2-303 limits assumed): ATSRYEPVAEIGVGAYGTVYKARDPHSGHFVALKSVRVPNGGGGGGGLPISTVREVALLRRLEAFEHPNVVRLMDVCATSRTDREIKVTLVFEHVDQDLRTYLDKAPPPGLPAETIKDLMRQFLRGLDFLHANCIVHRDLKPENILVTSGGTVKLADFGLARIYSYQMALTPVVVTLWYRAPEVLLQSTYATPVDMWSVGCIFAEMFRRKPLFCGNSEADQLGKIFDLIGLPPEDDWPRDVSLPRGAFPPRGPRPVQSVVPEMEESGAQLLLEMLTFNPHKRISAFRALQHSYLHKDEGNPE
Sequence (P24385 whole entry partner): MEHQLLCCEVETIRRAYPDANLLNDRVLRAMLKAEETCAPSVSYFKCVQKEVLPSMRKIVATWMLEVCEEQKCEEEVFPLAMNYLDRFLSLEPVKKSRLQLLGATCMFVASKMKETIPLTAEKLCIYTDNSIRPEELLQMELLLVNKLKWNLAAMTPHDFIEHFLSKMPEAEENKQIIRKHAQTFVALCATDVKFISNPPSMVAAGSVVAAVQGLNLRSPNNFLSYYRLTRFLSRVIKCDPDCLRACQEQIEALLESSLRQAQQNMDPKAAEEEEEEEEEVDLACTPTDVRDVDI
Sequence (Q16531 2-1140 limits assumed): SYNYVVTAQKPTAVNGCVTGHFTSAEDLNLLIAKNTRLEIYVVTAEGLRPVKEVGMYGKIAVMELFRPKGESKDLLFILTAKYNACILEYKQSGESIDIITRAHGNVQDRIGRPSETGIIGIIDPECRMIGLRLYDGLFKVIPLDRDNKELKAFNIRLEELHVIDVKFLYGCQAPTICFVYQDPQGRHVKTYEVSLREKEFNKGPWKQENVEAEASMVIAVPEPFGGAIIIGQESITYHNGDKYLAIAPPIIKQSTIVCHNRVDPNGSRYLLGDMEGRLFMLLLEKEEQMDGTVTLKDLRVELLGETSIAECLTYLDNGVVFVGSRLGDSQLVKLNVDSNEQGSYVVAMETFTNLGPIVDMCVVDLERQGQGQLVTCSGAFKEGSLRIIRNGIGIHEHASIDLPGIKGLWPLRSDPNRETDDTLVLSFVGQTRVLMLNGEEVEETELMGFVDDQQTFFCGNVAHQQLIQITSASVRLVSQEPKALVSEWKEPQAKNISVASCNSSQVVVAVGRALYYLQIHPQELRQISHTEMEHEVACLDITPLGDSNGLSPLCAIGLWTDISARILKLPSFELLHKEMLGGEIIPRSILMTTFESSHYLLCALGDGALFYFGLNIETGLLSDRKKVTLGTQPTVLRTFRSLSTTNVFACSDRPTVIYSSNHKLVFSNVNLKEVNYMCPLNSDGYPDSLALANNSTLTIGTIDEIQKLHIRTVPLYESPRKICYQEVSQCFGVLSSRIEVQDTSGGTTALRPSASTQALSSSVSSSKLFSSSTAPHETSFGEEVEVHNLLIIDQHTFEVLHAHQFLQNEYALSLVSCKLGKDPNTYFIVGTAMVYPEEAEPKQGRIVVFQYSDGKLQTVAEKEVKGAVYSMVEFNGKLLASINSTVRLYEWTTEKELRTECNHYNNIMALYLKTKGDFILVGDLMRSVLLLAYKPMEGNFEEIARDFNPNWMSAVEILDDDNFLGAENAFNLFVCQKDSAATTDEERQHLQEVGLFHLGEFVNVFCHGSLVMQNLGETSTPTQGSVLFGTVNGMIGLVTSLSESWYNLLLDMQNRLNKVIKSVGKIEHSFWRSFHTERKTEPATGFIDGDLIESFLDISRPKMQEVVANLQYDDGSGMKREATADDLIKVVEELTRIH
Assay: CDK4 percentage degradation in Calu-1 cells (Table 6)
Type: cell-based
Parameters: Cells that express cyclin D1-3 and CDK4/6 proteins were treated with heterobifunctional compounds; endogenous in cells; host or cells: Calu-1
Details: 40 nM, 16 hours
READOUT KIND: inhibition at 0.04 µM

Below: 2 compounds and their reported inhibition at 0.04 µM.
CNc1ccc(C(=O)Nc2ccc(N(C)C)nn2)c(NC2CC(CNC(=O)C(C)(C)N3CCN(c4ccc(Nc5ncc6c(C)c(C(C)=O)c(=O)n(C7CCCC7)c6n5)nc4)CC3)C2)n1 (stereo not drawn) [CPD-167] = > 80%
CC(=O)c1c(C)c2cnc(Nc3ccc(N4CCN(CC(=O)NCCC5CC(Nc6nc(C7CC7)ccc6C(=O)Nc6ccc(C)c(C7CC7)n6)C5)CC4)cn3)nc2n(C2CCCC2)c1=O (stereo not drawn) [CPD-45] = < 30%

Next, consider the following compound.
Req: Consider the compound shown here: CNc1ccc(C(=O)Nc2cccc(C)n2)c(NC2CC3(C2)CN(C(=O)C2(CN4CCN(c5ccc(Nc6ncc7c(C)c(C(C)=O)c(=O)n(C8CCCC8)c7n6)nc5)CC4)CC2)C3)n1 [CPD-171] What is its recorded inhibition at 0.04 µM?
Resp: > 80%
